- Test system: MHC-I expression by COLO 205 cells
- method: cells
- Assay type: cell-based, human
- conditionDetails: Homo sapiens, COLO 205, 48 h, MHC-I expression, COLO 205 cells, compounds at 35 μM, 48 hours, flow cytometry (W6/32); read-out: Induction Fold
- Procedure: A panel of synthetic cannabinoids (Cayman Chemical, #9002891) was tested for MHC class I-inducing capability in COLO 205 cells as described above. COLO 205 cells were treated with the compounds at a concentration of 35 μM and evaluated for cell surface MHC class I expression after 48 hours. Cells were harvested, stained with MHC-I mAb W6/32 (Thermo Fisher). MHC-I expression was determined by flow cytometry.
# Lookup of reported fold induction at 35 µM keyed by entry
Output spec: single numeric token, no unit.

Please review the following examples before continuing.
O=C(NC12CC3CC(CC(C3)C1)C2)c1nn(CC2CCOCC2)c2ccccc12 (single isomer, unassigned) [Example 361]    0.95
CCCCCn1cc(C(=O)c2ccccc2I)c2ccccc21 [Example 36]    3.3
COC(=O)[C@@H](NC(=O)c1nn(Cc2ccc(F)cc2)c2ccccc12)C(C)C [Example 15]    4.2
CCCCCn1cc(C(=O)c2cccc3c(OC)cccc23)c2ccccc21 [Example 346]    1.13
CCCCCn1cc(C(=O)Oc2ccnc3ccccc23)c2ccccc21 [Example 10]    5.02

Fill blank: measured fold induction at 35 µM of the compound CCCCCn1cc(C(=O)c2cccc3c(CC)cccc23)c2ccccc21 [Example 255] is ____. 1.6

Fill blank: measured fold induction at 35 µM of the compound CCCCCn1cc(C(=O)c2cccc3cccc(Br)c23)c2ccccc21 [Example 87] is ____. 2.51

Fill blank: measured fold induction at 35 µM of the compound CC1(C)C(C(=O)c2cn(CC3CCOCC3)c3ccccc23)C1(C)C [Example 260] is ____. 1.57

----------
- Tested on: MHC-I expression by COLO 205 cells
- method: cells
- Type: cell-based, human
- conditionDetails: Homo sapiens, COLO 205, 48 h, MHC-I expression, COLO 205 cells, compounds at 35 μM, 48 hours, flow cytometry (W6/32); read-out: Induction Fold
- Protocol: A panel of synthetic cannabinoids (Cayman Chemical, #9002891) was tested for MHC class I-inducing capability in COLO 205 cells as described above. COLO 205 cells were treated with the compounds at a concentration of 35 μM and evaluated for cell surface MHC class I expression after 48 hours. Cells were harvested, stained with MHC-I mAb W6/32 (Thermo Fisher). MHC-I expression was determined by flow cytometry.
Output fulfilled for records whose fold induction at 35 µM is lower than 2, not fulfilled for records at or above 2.

// known answers, use as guide
CCCCCn1cc(C(=O)c2cccc3cc(OC)ccc23)c2ccccc21 [Example 300]    fulfilled
CC(C)(C)C(NC(=O)c1nn(CCCCCF)c2ccccc12)C(N)=O (stereo not drawn) [Example 289]    fulfilled
CC(C)Cn1cc(C(=O)c2cccc3ccccc23)c2ccccc21 [Example 41]    not fulfilled

Check if fold induction at 35 µM falls below 2 for CCCCCCCC(C)(C)c1ccc([C@@H]2CCC[C@H](O)C2)c(O)c1 (relative stereo) [Example 241] . fulfilled

Check if fold induction at 35 µM falls below 2 for CC(C)[C@H](NC(=O)c1cc(-c2ccc(F)cc2)nn1CCCCCF)C(N)=O [Example 321] . fulfilled

Check if fold induction at 35 µM falls below 2 for CCCC(F)Cn1cc(C(=O)Oc2cccc3cccnc23)c2ccccc21 (stereo not drawn) [Example 83] . not fulfilled

Check if fold induction at 35 µM falls below 2 for CCCCn1cc(C(=O)c2ccc(OC)c3ccccc23)c2ccccc21 [Example 370] . fulfilled

Check if fold induction at 35 µM falls below 2 for CCCCCn1cc(C(=O)c2cccc3cccc(C)c23)c2ccccc21 [Example 81] . not fulfilled

Check if fold induction at 35 µM falls below 2 for CCC(F)CCn1cc(C(=O)c2cccc3ccccc23)c2ccccc21 (stereo not drawn) [Example 128] . not fulfilled
